- target.under.test: KRAS G13D (Homo sapiens (Human), UniProt P01116+P62937, G13D)
- Sequence (P01116-2 other isoform, or with tags, fused parts or gaps G13D): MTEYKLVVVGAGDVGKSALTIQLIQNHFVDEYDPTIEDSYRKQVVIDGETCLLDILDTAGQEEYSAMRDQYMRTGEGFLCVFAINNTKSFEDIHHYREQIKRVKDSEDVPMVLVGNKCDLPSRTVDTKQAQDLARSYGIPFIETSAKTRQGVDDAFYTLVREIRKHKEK
- Sequence (P62937 whole entry): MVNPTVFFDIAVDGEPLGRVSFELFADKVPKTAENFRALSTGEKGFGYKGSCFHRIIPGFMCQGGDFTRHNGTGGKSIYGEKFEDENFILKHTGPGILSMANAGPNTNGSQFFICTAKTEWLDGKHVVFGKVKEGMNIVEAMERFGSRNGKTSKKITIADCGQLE
- assay.info: Ras-Raf (BRAF RBD) disruption / FRET / MOA assay, KRAS G13D
- Format: biochemical
- measurement.conditions: read-out: IC50* KRAS G13D FRET data
pIC50: −log10 of the molar value.
assay.readout: pIC50

Please indicate pIC50 recorded for CCn1c(-c2cccnc2COC)c2c3cc(ccc31)-c1cc(O)cc(c1)C[C@H](NC(=O)[C@H](C(C)C)N(C)C(=O)[C@H]1CCN(C(=O)C#CC3(N(C)C)COC3)C1)C(=O)N1CCC[C@H](N1)C(=O)OCC(C)(C)C2 [Example A241]
5.00 to 6.00

Please indicate pIC50 recorded for CCn1c(-c2cccnc2COC)c2c3cc(ccc31)-c1cc(O)cc(c1)C[C@H](NC(=O)[C@H](C(C)C)N(C)C(=O)[C@H]1CCN(C(=O)C#CCCN3CCOCC3)C1)C(=O)N1CCC[C@H](N1)C(=O)OCC(C)(C)C2 [Example A129]
5.00 to 6.00

Please indicate pIC50 recorded for C/C=C(\C#N)C(=O)N1CC[C@H](C(=O)N(C)[C@H](C(=O)N[C@H]2Cc3cc(O)cc(c3)-c3ccc4c(c3)c(c(-c3cccnc3COC)n4CC)CC(C)(C)COC(=O)[C@@H]3CCCN(N3)C2=O)C(C)C)C1 [Example A178]
5.00 to 6.00

Please indicate pIC50 recorded for C=CC(=O)N1CC(OCC(C(=O)N[C@H]2Cc3cc(cc(C(F)F)c3)-c3ccc4c(c3)c(c(-c3cccnc3[C@H](C)OC)n4CC(F)(F)F)CC(C)(C)COC(=O)[C@@H]3CCCN(N3)C2=O)C(C)C)C1 (mixture of isomers) [Example A428]
< 5.00

Please indicate pIC50 recorded for CCn1c(-c2cccnc2[C@H](C)OC)c2c3cc(ccc31)-c1cccc(c1)C[C@H](NC(=O)[C@@H](COC1CN(C(=O)C#C[C@H]3COCCN3C)C1)C(C)C)C(=O)N1CCC[C@H](N1)C(=O)OCC(C)(C)C2 (atropisomer, axis not shown) [Example A644]
< 5.00

Please indicate pIC50 recorded for C=CC(=O)Nc1cnc(OC[C@H](C(=O)N[C@H]2Cc3cccc(c3)-c3ccc4c(c3)c(c(-c3cccnc3[C@H](C)OC)n4CC)CC(C)(C)COC(=O)[C@@H]3CCCN(N3)C2=O)C(C)C)n1C (atropisomer, axis not shown) [Example A600]
5.00 to 6.00

Please indicate pIC50 recorded for CCn1c(-c2ccccc2CN(C)C)c2c3cc(ccc31)-c1cc(O)cc(c1)C[C@H](NC(=O)[C@@H](C(C)C)N(C)C(=O)c1ncc(NC(=O)/C=C/CN(C)C)n1C)C(=O)N1CCC[C@H](N1)C(=O)OCC(C)(C)C2 [Example A126]
< 5.00

Please indicate pIC50 recorded for C=CC(=O)N1CC(OC[C@H](C(=O)N[C@H]2Cc3cccc(c3)-c3ccc4c(c3)c(c(-c3cccnc3[C@H](C)OC)n4CC(F)(F)F)CC(C)(C)COC(=O)[C@@H]3CCCN(N3)C2=O)C(C)C)C1 (atropisomer, axis not shown) [Example A344]
5.00 to 6.00

Please indicate pIC50 recorded for C=CC(=O)N1CC[C@H](C(=O)N(C)[C@H](C(=O)N[C@H]2Cc3cccc(c3)-c3ccc4c(c3)c(c(-c3cccnc3[C@H](C)OC)n4CC3COC3)CC(C)(C)COC(=O)[C@@H]3CCCN(N3)C2=O)C(C)C)C1 (atropisomer, axis not shown) [Example A481]
< 5.00

Please indicate pIC50 recorded for CO[C@@H](C)c1ncccc1-c1c2c3cc(ccc3n1CC(F)(F)F)-c1cc(CF)cc(c1)C[C@H](NC(=O)[C@@H](COC1CN(C(=O)C#CC(C)(C)N(C)C)C1)C(C)C)C(=O)N1CCC[C@H](N1)C(=O)OCC(C)(C)C2 (atropisomer, axis not shown) [Example A589]
< 5.00

Please indicate pIC50 recorded for CCn1c(-c2cccnc2)c2c3cc(ccc31)-c1csc(c1)C[C@H](NC(=O)[C@H](C(C)C)N(C)C(=O)[C@H]1CCN(C(=O)C#CCN3CCOCC3)C1)C(=O)N1CCC[C@H](N1)C(=O)OCC(C)(C)C2 [Example A205]
< 5.00

Please indicate pIC50 recorded for CO[C@@H](C)c1ncccc1-c1c2c3cc(ccc3n1CC(F)(F)F)-c1nc(co1)C[C@H](NC(=O)[C@@H](COC1CN(C(=O)C#CC(C)(C)N(C)C)C1)C(C)C)C(=O)N1CCC[C@H](N1)C(=O)OCC(C)(C)C2 (atropisomer, axis not shown) [Example A674]
< 5.00

Please indicate pIC50 recorded for C=CC(=O)N1CCC2(CCN(C(=O)N(C)[C@H](C(=O)N[C@H]3Cc4nc(cs4)-c4ccc5c(c4)c(c(-c4cccnc4[C@H](C)OC)n5CC)CC(C)(C)COC(=O)[C@@H]4CCCN(N4)C3=O)C(C)C)CC2)C1 (atropisomer, axis not shown) [Example A698]
6.00 to 7.00

Please indicate pIC50 recorded for CCn1c(-c2cnccc2COC)c2c3cc(ccc31)-c1cc(O)cc(c1)C[C@H](NC(=O)[C@H](C(C)C)N(C)C(=O)[C@H]1CCN(C(=O)C#CCN(C)C)C1)C(=O)N1CCC[C@H](N1)C(=O)OCC(C)(C)C2 (atropisomer, axis not shown) [Example A107]
6.00 to 7.00

Please indicate pIC50 recorded for C=CC(=O)N1CCN(C(=O)N(C)[C@H](C(=O)N[C@H]2Cc3nc(cs3)-c3ccc4c(c3)c(c(-c3cccnc3[C@H](C)OC)n4CC)CC(C)(C)COC(=O)[C@@H]3CCCN(N3)C2=O)C(C)C)CC12CC2 (atropisomer, axis not shown) [Example A417]
6.00 to 7.00

From: patent US11566007B2
